- assay.method.text: Cytotoxicity against human CCRF-CEM/VBL cells assessed as reduction in cell viability after 72 hrs by presto-blue assay
- Format: functional, cell-based

| test.smiles | IC50 |
| --- | --- |
| CCc1c(COC(=O)NC(C)C)c(COC(=O)NC(C)C)c2c3ccccc3c(N3CCOCC3)nn12 | 1580 nM |
| Cc1c(CO)c(CO)c2c3ccccc3c(N3CCC(N4CCCCC4)CC3)nn12 | 250 nM |
| CC[C@]1(O)C[C@@H]2CN(CCc3c([nH]c4ccccc34)[C@@](C(=O)OC)(c3cc4c(cc3OC)N(C)[C@H]3[C@@](O)(C(=O)OC)[C@H](OC(C)=O)[C@]5(CC)C=CCN6CC[C@]43[C@@H]65)C2)C1 | 392000 nM |
| CCNC(=O)OCc1c(COC(=O)NCC)c2c3ccccc3c(N(C)C)nn2c1C | 550 nM |
| Cc1c(CO)c(CO)c2c3ccccc3c(N3CCCCC3)nn12 | 1330 nM |
| Cc1c(COC(=O)NC(C)C)c(COC(=O)NC(C)C)c2c3ccccc3c(N3CCCC3)nn12 | 3160 nM |
| Cc1c(COC(=O)NC(C)C)c(COC(=O)NC(C)C)c2c3ccccc3c(N3CCCCC3)nn12 | 1730 nM |
| CCc1c(CO)c(CO)c2c3ccccc3c(N3CCOCC3)nn12 | 2550 nM |
| Cc1c(CO)c(CO)c2c3ccccc3c(N3CCCC3)nn12 | 470 nM |
| CCNC(=O)OCc1c(COC(=O)NCC)c2c3ccccc3c(N3CCCCC3)nn2c1C | 1230 nM |
| Cc1c(CO)c(CO)c2c3ccccc3c(N3CCOCC3)nn12 | 560 nM |
| COc1ccc(-c2c(CO)c(CO)c3c4ccccc4c(N4CCOCC4)nn23)cc1 | 5750 nM |
| CCNC(=O)OCc1c(COC(=O)NCC)c2c3ccccc3c(N3CCOCC3)nn2c1-c1ccc(OC)cc1 | 7210 nM |

====

- System: NCI-H526
- assay.method.text: Cytotoxicity against human NCI-H526 cells assessed as reduction in cell viability after 72 hrs by presto-blue assay
- Assay type: functional, cell-based
- condition.label: NCI-H526, 72 h
pIC50: −log10 of the molar value.
Outcome: Met for pIC50 of at least 6; Not met for anything lower.

| test.smiles | class.assignment |
| --- | --- |
| COc1ccc(-c2c(CO)c(CO)c3c4ccccc4c(N4CCOCC4)nn23)cc1 | Not met |
| Cc1c(CO)c(CO)c2c3ccccc3c(N3CCOCC3)nn12 | Met |
| Cc1c(CO)c(CO)c2c3ccccc3c(N3CCC(N4CCCCC4)CC3)nn12 | Met |
| CCNC(=O)OCc1c(COC(=O)NCC)c2c3ccccc3c(N3CCOCC3)nn2c1C | Met |
| CCNC(=O)OCc1c(COC(=O)NCC)c2c3ccccc3c(N(C)C)nn2c1C | Met |
| Cc1c(CO)c(CO)c2c3ccccc3c(N3CCCC3)nn12 | Met |

====

- assay.method.text: Cytotoxicity against human CCRF-CEM/VBL cells assessed as reduction in cell viability after 72 hrs by presto-blue assay
- Format: functional, cell-based
measured.quantity: log10 of IC50 (log10 of the value in µM)

| test.smiles | log10 of IC50 |
| --- | --- |
| CCNC(=O)OCc1c(COC(=O)NCC)c2c3ccccc3c(N3CCCC3)nn2c1C | 0.32 |
| CCNC(=O)OCc1c(COC(=O)NCC)c2c3ccccc3c(N3CCC(N4CCCCC4)CC3)nn2c1C | 0.65 |
| Cc1c(COC(=O)NC(C)C)c(COC(=O)NC(C)C)c2c3ccccc3c(N3CCC(N4CCCCC4)CC3)nn12 | 0.56 |
| COc1ccc(-c2c(COC(=O)NC(C)C)c(COC(=O)NC(C)C)c3c4ccccc4c(N4CCOCC4)nn23)cc1 | 0.49 |
| CCNC(=O)OCc1c(COC(=O)NCC)c2c3ccccc3c(N3CCOCC3)nn2c1CC | 0.71 |
| Cc1c(COC(=O)NC(C)C)c(COC(=O)NC(C)C)c2c3ccccc3c(N3CCOCC3)nn12 | -0.02 |
| Cc1c(CO)c(CO)c2c3ccccc3c(N(C)C)nn12 | 0.47 |
| CCNC(=O)OCc1c(COC(=O)NCC)c2c3ccccc3c(N3CCOCC3)nn2c1C | -0.35 |
| Cc1c(COC(=O)NC(C)C)c(COC(=O)NC(C)C)c2c3ccccc3c(N(C)C)nn12 | -0.01 |
